Reported c-Kit values follow for various compounds
targetDesc: KIT (Homo sapiens, UniProt P10721)
Construct: made in house
Sequence (P10721 26-976, species assumed): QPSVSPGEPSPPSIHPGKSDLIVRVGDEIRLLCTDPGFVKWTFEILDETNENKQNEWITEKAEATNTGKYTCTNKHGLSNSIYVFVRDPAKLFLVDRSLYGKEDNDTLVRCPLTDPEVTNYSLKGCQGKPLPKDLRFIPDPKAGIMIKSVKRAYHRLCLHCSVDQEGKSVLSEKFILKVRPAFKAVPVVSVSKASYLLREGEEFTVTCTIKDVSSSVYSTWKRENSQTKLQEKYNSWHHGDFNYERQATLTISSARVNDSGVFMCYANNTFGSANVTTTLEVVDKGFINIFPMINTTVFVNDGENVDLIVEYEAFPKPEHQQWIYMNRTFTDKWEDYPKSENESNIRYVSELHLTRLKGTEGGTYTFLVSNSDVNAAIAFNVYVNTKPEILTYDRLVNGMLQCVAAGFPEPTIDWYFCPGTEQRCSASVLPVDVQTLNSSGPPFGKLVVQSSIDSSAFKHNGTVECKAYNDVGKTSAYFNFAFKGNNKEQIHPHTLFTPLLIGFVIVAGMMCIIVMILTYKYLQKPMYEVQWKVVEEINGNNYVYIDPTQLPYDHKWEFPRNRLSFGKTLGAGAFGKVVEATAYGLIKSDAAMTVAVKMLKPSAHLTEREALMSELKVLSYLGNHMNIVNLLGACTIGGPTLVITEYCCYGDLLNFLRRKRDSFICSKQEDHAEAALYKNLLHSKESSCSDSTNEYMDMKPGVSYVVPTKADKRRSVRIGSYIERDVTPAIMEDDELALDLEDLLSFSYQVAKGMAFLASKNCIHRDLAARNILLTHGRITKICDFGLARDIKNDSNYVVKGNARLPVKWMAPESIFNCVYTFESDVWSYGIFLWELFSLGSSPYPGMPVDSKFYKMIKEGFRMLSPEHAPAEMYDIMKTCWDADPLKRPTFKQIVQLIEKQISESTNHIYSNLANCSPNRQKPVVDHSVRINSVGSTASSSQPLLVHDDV
runDescription: KIT kinase assay, 33P-ATP incorporation, residual activity
Format: biochemical
settings: compounds marked !: tested at 2.5 micromolar

Reference set, count: 3
chemicalStructure	targetDesc	c-Kit
CCCCCCCCOc1ccc(-c2nc3c(NC)ncnc3n2C[C@H]2O[C@@H](n3nnc(C(N)=O)c3-c3ccccc3)[C@H](O)[C@@H]2O)cc1	KIT (Homo sapiens, UniProt P10721)	6
COc1ccc(-c2c(C(N)=O)nnn2[C@@H]2O[C@H](Cn3c(-c4ccc(OCc5ccccc5)cc4)nc4cc(Cl)c(Cl)cc43)[C@@H](O)[C@H]2O)cc1	KIT (Homo sapiens, UniProt P10721)	9
NC(=O)c1nnn([C@@H]2O[C@H](Cn3c(-c4ccc(OCc5ccccc5)cc4)nc4cc(Cl)c(Cl)cc43)[C@@H](O)[C@H]2O)c1-c1ccccc1	KIT (Homo sapiens, UniProt P10721)	16

Turning now to a further compound:
Report c-Kit for NC(=O)c1nnn([C@@H]2O[C@H](Cn3c(-c4ccc(OCc5ccccc5)cc4)nc4cc(Cl)c(Cl)cc43)[C@@H](O)[C@H]2O)c1-c1ccc(Cl)cc1 11

====

targetDesc: PKC-beta1 (Homo sapiens)
Sequence (P05771 whole entry): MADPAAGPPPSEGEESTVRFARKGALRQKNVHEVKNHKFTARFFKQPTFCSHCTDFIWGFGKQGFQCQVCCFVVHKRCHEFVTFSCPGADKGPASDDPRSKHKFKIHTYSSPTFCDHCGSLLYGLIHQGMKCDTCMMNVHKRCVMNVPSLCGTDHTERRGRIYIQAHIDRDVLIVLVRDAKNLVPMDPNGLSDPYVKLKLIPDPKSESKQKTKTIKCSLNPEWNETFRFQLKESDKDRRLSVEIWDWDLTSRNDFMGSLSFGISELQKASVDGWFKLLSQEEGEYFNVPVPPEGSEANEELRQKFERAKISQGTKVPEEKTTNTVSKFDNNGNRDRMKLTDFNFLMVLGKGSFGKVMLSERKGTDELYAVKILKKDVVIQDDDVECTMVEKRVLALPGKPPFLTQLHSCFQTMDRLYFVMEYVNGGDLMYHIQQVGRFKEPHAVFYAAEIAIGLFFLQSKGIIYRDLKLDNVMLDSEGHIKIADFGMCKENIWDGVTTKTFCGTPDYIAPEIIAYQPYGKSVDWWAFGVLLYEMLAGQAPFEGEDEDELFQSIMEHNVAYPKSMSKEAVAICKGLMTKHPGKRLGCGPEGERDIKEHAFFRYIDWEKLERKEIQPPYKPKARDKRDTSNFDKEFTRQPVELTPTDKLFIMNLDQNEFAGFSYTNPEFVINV
runDescription: PKC-beta1 kinase assay, 33P-ATP incorporation, residual activity
Assay type: biochemical
settings: tested at 25 micromolar
propertyLabel: PKC
# respond with the number and nothing more

Reference set, count: 2
molecule	PKC
CCCCCCCCSc1nc2cc(C(N)=O)ccc2n1C[C@H]1O[C@@H](n2nnc(C(N)=O)c2-c2ccccc2)[C@H](O)[C@@H]1O	142
CCn1c2ccccc2c2ccc(CN3C(=O)N(C[C@H]4O[C@@H](n5nnc(C(N)=O)c5-c5ccccc5)[C@H](O)[C@@H]4O)C(=O)C3Cc3ccccc3)cc21 (some centres unmarked)	13

Report PKC for Nc1ncnc2c1ncn2[C@@H]1O[C@H](CN2C(=O)C(Cc3ccccc3)N(Cc3cccn3S(=O)(=O)c3ccccc3)C2=O)[C@@H](O)[C@H]1O (some centres unmarked) 10

Report PKC for CCCCCCCCOc1ccc(-c2nc3cc(C(N)=O)ccc3n2C[C@H]2O[C@@H](n3nnc(C(N)=O)c3-c3ccccc3)[C@H](O)[C@@H]2O)cc1 80

Report PKC for CCCc1c(C(N)=O)nnn1[C@@H]1O[C@H](Cn2c(-c3ccc(F)c(C(F)(F)F)c3)nc3cc(C(N)=O)ccc32)[C@@H](O)[C@H]1O 104

Report PKC for Cc1cccc(CSc2nc3cc(C(N)=O)ccc3n2C[C@H]2O[C@@H](n3cnc4c(N)ncnc43)[C@H](O)[C@@H]2O)c1 80

Report PKC for Nc1ncnc2c1ncn2[C@@H]1O[C@H](Cn2c(-c3ccc(OCc4ccccc4)cc3)nc3ccccc32)[C@@H](O)[C@H]1O 96

Report PKC for Nc1ncnc2c1ncn2[C@@H]1O[C@H](CN2C(=O)C(Cc3ccccc3)N(Cc3ccccc3Sc3ccc(Cl)cc3)C2=O)[C@@H](O)[C@H]1O (some centres unmarked) 50

Report PKC for CCCc1c(C(N)=O)nnn1[C@@H]1O[C@H](CNCc2nc3cc(C(N)=O)ccc3n2-c2ccc(-c3ccccc3)cc2)[C@@H](O)[C@H]1O 65

Report PKC for Nc1ncnc2c1ncn2[C@@H]1O[C@H](CN2C(=O)C(Cc3ccccc3)N(Cc3ccccc3[N+](=O)[O-])C2=O)[C@@H](O)[C@H]1O (some centres unmarked) 26

Report PKC for Nc1ncnc2c1ncn2[C@@H]1O[C@H](CN2C(=O)C(Cc3ccccc3)N(Cc3cccs3)C2=O)[C@@H](O)[C@H]1O (some centres unmarked) 27

Sourced from patent US8673586B2
